The reported numbers originate from patent US20250313635A1.

- target.of.assay: T1, human α5β1 integrin on CHOK1 stable cells (human, UniProt P08648 42-1049; P05556 21-798)
- T1 construct: whole, on cells; Stably expressed on CHOK1 cells; also called hα5β1; CHOK1-human α5β1
- protocol.summary: cell-based ELISA (CELISA), CHOK1 cells expressing the integrin
quantity.measured: pEC50
Hey, just a heads up that pEC50 is the negative log base 10 of the concentration in molar.

// recorded pEC50 for Ab-30 (antibody, V domains shown) VH: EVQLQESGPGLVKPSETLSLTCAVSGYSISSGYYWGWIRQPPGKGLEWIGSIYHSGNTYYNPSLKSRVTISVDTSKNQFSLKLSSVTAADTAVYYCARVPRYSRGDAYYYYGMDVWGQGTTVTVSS VL: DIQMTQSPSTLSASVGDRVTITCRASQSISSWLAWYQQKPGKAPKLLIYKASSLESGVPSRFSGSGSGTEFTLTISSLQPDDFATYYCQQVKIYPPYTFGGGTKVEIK : 9.31

// recorded pEC50 for Ab-31 (antibody, V domains shown) VH: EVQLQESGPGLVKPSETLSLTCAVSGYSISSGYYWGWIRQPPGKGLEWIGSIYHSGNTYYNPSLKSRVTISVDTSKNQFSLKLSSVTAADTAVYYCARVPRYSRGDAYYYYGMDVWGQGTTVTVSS VL: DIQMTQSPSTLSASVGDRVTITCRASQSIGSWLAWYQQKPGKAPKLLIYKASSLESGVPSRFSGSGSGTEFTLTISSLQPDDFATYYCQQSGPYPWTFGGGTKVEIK : 8.91

// recorded pEC50 for Ab-29 (antibody, V domains shown) VH: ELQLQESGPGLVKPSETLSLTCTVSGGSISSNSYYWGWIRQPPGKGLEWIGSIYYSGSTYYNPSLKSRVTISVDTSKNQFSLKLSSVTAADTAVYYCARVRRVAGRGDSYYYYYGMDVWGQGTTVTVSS VL: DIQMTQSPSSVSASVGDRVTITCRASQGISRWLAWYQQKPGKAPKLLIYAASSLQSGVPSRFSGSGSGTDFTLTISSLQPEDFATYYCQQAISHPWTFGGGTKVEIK : 9.78

// recorded pEC50 for Ab-32 (antibody, V domains shown) VH: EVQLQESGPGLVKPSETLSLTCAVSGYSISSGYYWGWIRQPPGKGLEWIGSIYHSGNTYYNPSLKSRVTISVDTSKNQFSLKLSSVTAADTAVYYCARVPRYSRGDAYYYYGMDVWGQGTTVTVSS VL: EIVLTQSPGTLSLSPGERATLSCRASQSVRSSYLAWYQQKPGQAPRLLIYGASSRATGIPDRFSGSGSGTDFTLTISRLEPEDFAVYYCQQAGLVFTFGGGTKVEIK : 9.22
